List of % Inhibition n=1 48h values.
Tested on: G. duodenalis BRIS/91/HEPU/1279
Assay: Primary Giardia screen at 10 µM (live-cell imaging, automated counting)
Type: cell-based, Giardia duodenalis
Settings: 48 h, first singlicate assay
Record the result as a number with its unit.

Please review the entries below; each comes with its answer.
- RECORD SMILES: "Cc1cccc(NC(=O)N2CCN(c3nc(C)cc(N4CCN(C)CC4)n3)CC2)c1"
  % Inhibition n=1 48h: "17.4%"
- RECORD SMILES: "O=C(Cn1c(-c2ccccn2)noc1=O)N1CCc2sccc2C1"
  % Inhibition n=1 48h: "0.0%"
- RECORD SMILES: "CCCCC(=O)N1CCN(S(=O)(=O)c2c[nH]c3ncccc23)CC1"
  % Inhibition n=1 48h: "2.4%"

Field % Inhibition n=1 48h (entry O=C(NCC1(c2ccccc2)CCOCC1)c1ccc(Br)cc1 ) reads 61.1%

Field % Inhibition n=1 48h (entry Cc1ccc(Cl)cc1-n1ncc2c(NCCO)ncnc21 ) reads 8.1%

====

System: G. duodenalis BRIS/91/HEPU/1279
Experiment: Primary Giardia screen at 10 µM (live-cell imaging, automated counting)
Assay type: cell-based, Giardia duodenalis
Details: 48 h, first singlicate assay
RECORDED ENDPOINT: % Inhibition n=1 48h (%)
Provide only the numeric value, understood in %.

Please review the entries below; each comes with its answer.
- COMPOUND: "Cc1cc(C2CCCN2Cc2cc(-c3ccco3)on2)on1 (stereo not drawn)"
  TARGET OF ASSAY: "G. duodenalis BRIS/91/HEPU/1279"
  REPORTED: 35.3
- COMPOUND: "CC(=O)Nc1ccc2c(c1)CN(C(=O)C1CCCCC1)C(C(=O)N1CCCCC1)C2 (stereo not drawn)"
  TARGET OF ASSAY: "G. duodenalis BRIS/91/HEPU/1279"
  REPORTED: 8.7
- COMPOUND: "CCOc1cc2c(cc1OCC)-n1cccc1C(c1cccc([N+](=O)[O-])c1)NC2 (stereo not drawn)"
  TARGET OF ASSAY: "G. duodenalis BRIS/91/HEPU/1279"
  REPORTED: 10.3
- COMPOUND: "Cn1cccc1C1CCCCCN1C(=O)CCSCc1nc2sc3c(c2c(=O)[nH]1)CCC3 (stereo not drawn)"
  TARGET OF ASSAY: "G. duodenalis BRIS/91/HEPU/1279"
  REPORTED: 67.7
- COMPOUND: "CCCNc1ncnc2c1cnn2-c1ccc(C)cc1"
  TARGET OF ASSAY: "G. duodenalis BRIS/91/HEPU/1279"
  REPORTED: 0.0
- COMPOUND: "Cn1cc2c3c(cccc31)CN(C(=O)NC(C)(C)C)CC2"
  TARGET OF ASSAY: "G. duodenalis BRIS/91/HEPU/1279"
  REPORTED: 7.2
- COMPOUND: "CC(C)(C)NC(=O)CCN1CCc2[nH]nc(C(F)(F)F)c2C1"
  TARGET OF ASSAY: "G. duodenalis BRIS/91/HEPU/1279"
  REPORTED: 9.6
- COMPOUND: "C=CCn1c(C)c(CC(=O)Nc2cc(F)ccc2C)c(=O)n2nc(-c3ccccc3)nc12"
  TARGET OF ASSAY: "G. duodenalis BRIS/91/HEPU/1279"
  REPORTED: 40.6

From here, focus on the item given below.
Field % Inhibition n=1 48h (entry Cc1ccc(S(=O)(=O)NC2CCN(C(=O)Cc3ccc(Br)cc3)CC2)cc1 ) reads 3.1
